biological target: mTOR (Homo sapiens, UniProt P42345)
measure name: pIC50
// pIC50: -log10(molar conc.)

Query: pIC50; subject: "CC(=O)Nc1ccc(-c2ccc3ncc4ccc(=O)n(-c5cccc(C(F)(F)F)c5)c4c3n2)cn1" 8.52

Query: pIC50; subject: "Nc1ncc(-c2ccc3ncc4ccc(=O)n(-c5cccc(C(F)(F)F)c5)c4c3n2)cn1" 9.33

Query: pIC50; subject: "Nc1ccc(-c2ccc3ncc4ccc(=O)n(-c5cccc(C(F)(F)F)c5)c4c3n2)cn1" 9.06

---

test: Pharmacokinetic assay in rat in vivo; conditions: Sprague-Dawley (SD), plasma, male SD rats, IV(2 mg/kg), dosage in Table 3 (Compound 16: 0.45 mg/kg)
measure name: AUC(0-t) (ng·h/mL)
Just the number please, in ng·h/mL, no unit attached.

- compound: "N#Cc1ccc(-c2ccc3ncc4ccc(=O)n(-c5cccc(C(F)(F)F)c5)c4c3n2)cn1"
  measure name: "AUC(0-t)"
  result number: 195
- compound: "Nc1ccc(-c2ccc3ncc4ccc(=O)n(-c5cccc(C(F)(F)F)c5)c4c3n2)cn1"
  measure name: "AUC(0-t)"
  result number: 1310
- compound: "CC(=O)Nc1ccc(-c2ccc3ncc4ccc(=O)n(-c5cccc(C(F)(F)F)c5)c4c3n2)cn1"
  measure name: "AUC(0-t)"
  result number: 441
- compound: "O=c1ccc2cnc3ccc(-c4c[nH]c5ncccc45)nc3c2n1-c1cccc(C(F)(F)F)c1"
  measure name: "AUC(0-t)"
  result number: 723
- compound: "Nc1ncc(-c2ccc3ncc4ccc(=O)n(-c5cccc(C(F)(F)F)c5)c4c3n2)cn1"
  measure name: "AUC(0-t)"
  result number: 711

Query: AUC(0-t); subject: Nc1ccc(-c2ccc3ncc4ccc(=O)n(-c5cccc(C(F)(F)F)c5)c4c3c2)cn1 [Torin-2, reference compound] 259
